Sourced from paper PMC3835791

- test system: Purified human ATX (Homo sapiens)
- Construct: purchased Echelon Biosciences, Inc. (Salt Lake City, UT)
- assay comment: Evaluation of ATX inhibition with fluorogenic substrates (AR-2 or FS-3)
- Type: biochemical
- test parameters: ATX substrate AR-2 (1 µM), human ATX 2 nM, 37°C; Ki determined from the IC50
endpoint name: Ki
Could you give the number and then its unit, please?

Look at this compound and give its reported Ki. CCCCCCCCCCCCCC(=O)Nc1ccc(CP(=O)(O)O)cc1
1.6 nM

----------
- test system: Purified human ATX (Homo sapiens)
- Construct: purchased Echelon Biosciences, Inc. (Salt Lake City, UT)
- assay comment: Evaluation of ATX inhibition with fluorogenic substrates (AR-2 or FS-3)
- Type: biochemical
- test parameters: ATX substrate FS-3 (1 µM), human ATX 2 nM, 37°C; Ki determined from the IC50
- Description: DMSO was spiked into each reaction mixture to equalize vehicle concentrations. […] The rates of fluorescence increase were measured for up to 2 h. The initial velocity of fluorescence increase was determined and normalized to control reactions. The IC50 of each compound was calculated by fitting a standard curve using a sigmoidal dose-response (variable slope) nonlinear regression curve using GraphPad Prism (version 5.03). […]
endpoint name: Ki

Which Ki reading was recorded for the molecule CCCCCCCCCCCCCC(=O)Nc1ccc(CP(=O)(O)O)cc1 [S32826] ?
5.5 nM
